Give measured Ki for each item. Keep answers brief.
measurement.target: recombinant human mGluR2 (Homo sapiens, UniProt Q14416)
Construct: expressed in transfected cells; host or cells: RGT cells
Sequence (Q14416 19-872): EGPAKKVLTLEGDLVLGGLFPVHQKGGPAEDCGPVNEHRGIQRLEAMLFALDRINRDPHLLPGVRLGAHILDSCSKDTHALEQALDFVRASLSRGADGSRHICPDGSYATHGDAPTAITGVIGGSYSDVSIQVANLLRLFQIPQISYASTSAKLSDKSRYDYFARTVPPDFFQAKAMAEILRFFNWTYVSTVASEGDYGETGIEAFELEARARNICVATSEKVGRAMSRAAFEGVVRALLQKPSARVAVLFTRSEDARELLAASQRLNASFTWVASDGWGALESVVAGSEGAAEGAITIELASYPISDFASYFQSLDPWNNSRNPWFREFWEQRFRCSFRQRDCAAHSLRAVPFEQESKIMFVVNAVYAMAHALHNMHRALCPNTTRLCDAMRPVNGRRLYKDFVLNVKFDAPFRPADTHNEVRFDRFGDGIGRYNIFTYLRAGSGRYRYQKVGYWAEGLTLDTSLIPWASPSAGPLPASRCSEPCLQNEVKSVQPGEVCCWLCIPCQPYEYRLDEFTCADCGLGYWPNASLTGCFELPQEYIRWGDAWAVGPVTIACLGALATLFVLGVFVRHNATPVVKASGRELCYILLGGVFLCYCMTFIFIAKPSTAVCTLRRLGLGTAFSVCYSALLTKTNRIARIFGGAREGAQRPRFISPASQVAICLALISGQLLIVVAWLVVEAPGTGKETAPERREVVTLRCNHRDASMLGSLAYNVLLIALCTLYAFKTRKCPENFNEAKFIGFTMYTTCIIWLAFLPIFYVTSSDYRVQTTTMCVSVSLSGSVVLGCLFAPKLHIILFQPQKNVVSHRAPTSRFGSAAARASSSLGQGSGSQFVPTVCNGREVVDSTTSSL
assay.protocol: [3H]LY341495 displacement binding, mGlu2
experimental.parameters: displacement of [3H]LY341495; receptors expressed in RGT cells; read-out: Ki (nM) ± SEM mGlu2, effects on [3H]LY341495 binding
Note: unit nM is implicit; provide only the numeric part.

Problem: May I ask what Ki has been recorded for CNC(=O)N[C@H]1C[C@@](N)(C(=O)O)[C@@H]2[C@@H](C(=O)O)[C@@H]21 (relative stereo) [Example 20] ?
Result: 254

Problem: May I ask what Ki has been recorded for N[C@@]1(C(=O)O)C[C@H](NC(=O)c2ccccc2)[C@H]2[C@H](C(=O)O)[C@H]21 (relative stereo) [Example 24] ?
Result: 511

Problem: May I ask what Ki has been recorded for CNC(=O)N[C@@H]1C[C@@](N)(C(=O)O)[C@@H]2[C@@H](C(=O)O)[C@@H]21 (relative stereo) ?
Result: 468

Problem: May I ask what Ki has been recorded for N[C@@]1(C(=O)O)C[C@@H](NC(=O)c2ccccc2)[C@H]2[C@H](C(=O)O)[C@H]21 (relative stereo) ?
Result: 607

Problem: May I ask what Ki has been recorded for CC(=O)N[C@H]1C[C@@](N)(C(=O)O)[C@@H]2[C@@H](C(=O)O)[C@@H]21 (relative stereo) [Example 23] ?
Result: 772

Problem: May I ask what Ki has been recorded for CC(=O)N[C@@H]1C[C@@](N)(C(=O)O)[C@@H]2[C@@H](C(=O)O)[C@@H]21 (relative stereo) ?
Result: 638

###

Give measured EC50 for each item. Keep answers brief.
measurement.target: recombinant mGlu3 receptors (Homo sapiens)
Construct: expressed in transfected cells
Sequence (Q14832 23-879): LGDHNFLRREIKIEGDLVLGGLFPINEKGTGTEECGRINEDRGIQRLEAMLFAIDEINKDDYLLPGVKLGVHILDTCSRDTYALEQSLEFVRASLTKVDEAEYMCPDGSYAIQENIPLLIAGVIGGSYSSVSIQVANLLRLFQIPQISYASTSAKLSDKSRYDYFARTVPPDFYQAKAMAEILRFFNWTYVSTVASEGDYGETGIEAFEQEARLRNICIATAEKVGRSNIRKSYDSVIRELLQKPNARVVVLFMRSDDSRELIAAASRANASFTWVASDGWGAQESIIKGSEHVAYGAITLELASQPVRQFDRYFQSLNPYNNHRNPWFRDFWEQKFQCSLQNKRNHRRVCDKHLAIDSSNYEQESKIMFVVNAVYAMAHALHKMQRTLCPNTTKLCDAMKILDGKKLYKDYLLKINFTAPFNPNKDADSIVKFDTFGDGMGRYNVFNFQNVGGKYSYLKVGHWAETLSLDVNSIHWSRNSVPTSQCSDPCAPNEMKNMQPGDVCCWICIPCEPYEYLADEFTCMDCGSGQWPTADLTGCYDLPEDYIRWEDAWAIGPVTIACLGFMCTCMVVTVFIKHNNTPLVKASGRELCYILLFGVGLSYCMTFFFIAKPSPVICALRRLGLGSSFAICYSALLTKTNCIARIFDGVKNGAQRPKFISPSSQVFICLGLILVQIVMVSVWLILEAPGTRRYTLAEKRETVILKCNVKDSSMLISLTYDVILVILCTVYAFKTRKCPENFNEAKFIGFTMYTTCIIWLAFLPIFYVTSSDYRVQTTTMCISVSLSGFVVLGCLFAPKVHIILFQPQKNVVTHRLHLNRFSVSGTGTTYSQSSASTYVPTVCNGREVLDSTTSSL
assay.protocol: forskolin-stimulated cAMP accumulation in cells expressing mGlu3
Format: cell-based
experimental.parameters: agonist: reduces cAMP accumulation to 50% of the controls; read-out: EC50 (nM) ± SEM mGlu3, forskolin-stimulated cAMP accumulation
Give me the value, and tack the unit on after it.

Problem: May I ask what EC50 has been recorded for CC(=O)N[C@H]1C[C@@](N)(C(=O)O)[C@@H]2[C@@H](C(=O)O)[C@@H]21 (relative stereo) ?
Result: 1730 nM

Problem: May I ask what EC50 has been recorded for CNC(=O)N[C@H]1C[C@@](N)(C(=O)O)[C@@H]2[C@@H](C(=O)O)[C@@H]21 (relative stereo) ?
Result: 41.1 nM

Problem: May I ask what EC50 has been recorded for N[C@@]1(C(=O)O)C[C@H](NC(=O)c2ccccc2)[C@H]2[C@H](C(=O)O)[C@H]21 (relative stereo) ?
Result: 18.1 nM
